Where do these numbers come from? They come from ChEMBL document CHEMBL1151705.

- System: Streptococcus pneumoniae
- method.description: Antimicrobial activity against drug-susceptible Streptococcus pneumoniae 3 after 20 hrs by agar dilution method
- Type: functional

# molecule, unit.of.measure, MIC
rows = [
    ("CCOC(=O)[C@H]1[C@H](C)O[C@@H](O[C@H]2[C@H](N(C)C)[C@@H](O)[C@H](O[C@H]3[C@@H](CC=O)C[C@@H](C)[C@@H](O)CN(C)CC(/C=C\\Cc4ccnc5ccccc45)CCOC(=O)C[C@@H](OC(=O)CC)[C@@H]3OC)O[C@@H]2C)C[C@@]1(C)O (stereo in doubt; form 1)", "µg/mL", 0.06),
]

---

- Tested on: Haemophilus influenzae
- method.description: Antimicrobial activity against drug-susceptible Haemophilus influenzae 2 after 20 hrs by agar dilution method
- Type: functional
- assay.conditions: Haemophilus influenzae, 20 h; read-out: MIC
Reported log10 of MIC by item:
recorded.endpoint: log10 of MIC (log10 of the value in µg/mL)

# compound, log10 of MIC
data = [
    ("CCOC(=O)[C@H]1[C@H](C)O[C@@H](O[C@H]2[C@H](N(C)C)[C@@H](O)[C@H](O[C@H]3[C@@H](CC=O)C[C@@H](C)[C@@H](O)CN(C)CCC[C@@H](C/C=C/c4ccnc5ccccc45)OC(=O)C[C@@H](OC(=O)CC)[C@@H]3OC)O[C@@H]2C)C[C@@]1(C)O", 0.90),
    ("CCOC(=O)[C@H]1[C@H](C)O[C@@H](O[C@H]2[C@H](N(C)C)[C@@H](O)[C@H](O[C@H]3[C@@H](CC=O)C[C@@H](C)[C@@H](O)CN(CCCCc4ccccc4)CC[C@@H](C)OC(=O)C[C@@H](OC(=O)CC)[C@@H]3OC)O[C@@H]2C)C[C@@]1(C)OC(C)=O", 0.00),
    ("CCOC(=O)[C@H]1[C@H](C)O[C@@H](O[C@H]2[C@H](N(C)C)[C@@H](O)[C@H](O[C@H]3[C@@H](CC=O)C[C@@H](C)[C@@H](O)CN(C)CCC[C@H](C/C=C/c4cccc5ccccc45)OC(=O)C[C@@H](OC(=O)CC)[C@@H]3OC)O[C@@H]2C)C[C@@]1(C)O", 1.20),
    ("CCOC(=O)[C@H]1[C@H](C)O[C@@H](O[C@H]2[C@H](N(C)C)[C@@H](O)[C@H](O[C@H]3[C@@H](CC=O)C[C@@H](C)[C@@H](OC(C)=O)CN(CCCCc4ccccc4)CCC[C@@H](C)OC(=O)C[C@@H](OC(=O)CC)[C@@H]3OC)O[C@@H]2C)C[C@@]1(C)OC(C)=O", 0.60),
    ("CCOC(=O)[C@H]1[C@H](C)O[C@@H](O[C@H]2[C@H](N(C)C)[C@@H](O)[C@H](O[C@H]3[C@@H](CC=O)C[C@@H](C)[C@@H](O)CN(C)CCC[C@H](CCCc4cnc5ccccc5c4)OC(=O)C[C@@H](OC(=O)CC)[C@@H]3OC)O[C@@H]2C)C[C@@]1(C)O", 0.30),
    ("CCOC(=O)[C@H]1[C@H](C)O[C@@H](O[C@H]2[C@H](N(C)C)[C@@H](O)[C@H](O[C@H]3[C@@H](CC=O)C[C@@H](C)[C@@H](O)CN(C)CC(/C=C/Cc4ccnc5ccccc45)CCOC(=O)C[C@@H](OC(=O)CC)[C@@H]3OC)O[C@@H]2C)C[C@@]1(C)O (stereo in doubt; form 2)", 0.60),
    ("CCOC(=O)[C@H]1[C@H](C)O[C@@H](O[C@H]2[C@H](N(C)C)[C@@H](O)[C@H](O[C@H]3[C@@H](CC=O)C[C@@H](C)[C@@H](O)CN(CCCc4ccnc5ccccc45)CCCNC(=O)C[C@@H](OC(=O)CC)[C@@H]3OC)O[C@@H]2C)C[C@@]1(C)O", 0.00),
    ("CCOC(=O)[C@H]1[C@H](C)O[C@@H](O[C@H]2[C@H](N(C)C)[C@@H](O)[C@H](O[C@H]3[C@@H](CC=O)C[C@@H](C)[C@@H](O)CN(C)CCC[C@H](C/C=C/c4cnc5ccccc5c4)OC(=O)C[C@@H](OC(=O)CC)[C@@H]3OC)O[C@@H]2C)C[C@@]1(C)O", 0.30),
    ("CCOC(=O)[C@H]1[C@H](C)O[C@@H](O[C@H]2[C@H](N(C)C)[C@@H](O)[C@H](O[C@H]3[C@@H](CC=O)C[C@@H](C)[C@@H](OC(C)=O)CN(CCCCc4ccccc4)CC[C@@H](C)OC(=O)C[C@@H](OC(=O)CC)[C@@H]3OC)O[C@@H]2C)C[C@@]1(C)OC(C)=O", 0.30),
    ("CCOC(=O)[C@H]1[C@H](C)O[C@@H](O[C@H]2[C@H](N(C)C)[C@@H](O)[C@H](O[C@H]3[C@@H](CC=O)C[C@@H](C)[C@@H](O)CN(C)CCC(C/C=C/c4ccnc5ccccc45)NC(=O)C[C@@H](OC(=O)CC)[C@@H]3OC)O[C@@H]2C)C[C@@]1(C)O (single isomer, unassigned)", 0.30),
    ("CCC(=O)O[C@@H]1CC(=O)NCCCN(CCCc2ccnc3ccccc23)C[C@H](O)[C@H](C)C[C@H](CC=O)[C@H](O[C@@H]2O[C@H](C)[C@@H](O)[C@H](N(C)C)[C@H]2O)[C@H]1OC", 0.90),
    ("CCOC(=O)[C@H]1[C@H](C)O[C@@H](O[C@H]2[C@H](N(C)C)[C@@H](O)[C@H](O[C@H]3[C@@H](CC=O)C[C@@H](C)[C@@H](O)CN(C)CC(/C=C/Cc4cnc5ccccc5c4)CCOC(=O)C[C@@H](OC(=O)CC)[C@@H]3OC)O[C@@H]2C)C[C@@]1(C)O (stereo in doubt; form 1)", 0.30),
    ("CCOC(=O)[C@H]1[C@H](C)O[C@@H](O[C@H]2[C@H](N(C)C)[C@@H](O)[C@H](O[C@H]3[C@@H](CC=O)C[C@@H](C)[C@@H](O)CN(C)CC(/C=C\\Cc4cnc5ccccc5c4)CCOC(=O)C[C@@H](OC(=O)CC)[C@@H]3OC)O[C@@H]2C)C[C@@]1(C)O (some centres undefined)", 0.90),
    ("CCOC(=O)[C@H]1[C@H](C)O[C@@H](O[C@H]2[C@H](N(C)C)[C@@H](O)[C@H](O[C@H]3[C@@H](CC=O)C[C@@H](C)[C@@H](O)CN(C)CCC[C@H](C/C=C/c4ccnc5ccccc45)OC(=O)C[C@@H](OC(=O)CC)[C@@H]3OC)O[C@@H]2C)C[C@@]1(C)O", 0.30),
]
